biological target: SHP2-C SH2; test: SH2 binding enrichment of the phosphorylated peptide, bacterial display (enrichment ratio); higher = better substrate or ligand; peptides without Tyr show the background
Property Measured: SH2 binding enrichment

Below, each entry is followed by its recorded SH2 binding enrichment result.
{"Residue Sequence": "CPFNLYAEQLS [HGD_Y40_YF]", "SH2 binding enrichment": 0.708}
{"Residue Sequence": "QMQNPYSRHSS [MUC13_Y501]", "SH2 binding enrichment": 0.758}
{"Residue Sequence": "AIMSFYAALID [RYR1_Y2426]", "SH2 binding enrichment": 1.47}

(P) LLIMEYAKYGS [RET_Y806_V804M]
(Q) FSQQTYCRVSN [ABCD1_Y180_Y181C]
(R) RESVSYLFSHV [PRPS1_Y311_G306R]
Lookup: Parameters: sort_field (SH2 binding enrichment), sort_dir (desc). Write the labels in rank order as requested.
Found: R, P, Q

(a) GIVEDYRPTFF [ACVRL1_Y421_P424T_YF]
(b) FFVVRYCWLRR [MPZ_Y181_YF]
Lookup: Could you check which of a and b has a smaller value for SH2 binding enrichment? Returns: label corresponding to the selected item.
Found: b
(b: 0.414, a: 0.695)

###

biological target: Fyn (UniProt P06241); assay: phosphorylation enrichment, bacterial display (enrichment ratio); higher = better substrate or ligand; peptides without Tyr show the background
Sequence (P06241 whole entry, looked up): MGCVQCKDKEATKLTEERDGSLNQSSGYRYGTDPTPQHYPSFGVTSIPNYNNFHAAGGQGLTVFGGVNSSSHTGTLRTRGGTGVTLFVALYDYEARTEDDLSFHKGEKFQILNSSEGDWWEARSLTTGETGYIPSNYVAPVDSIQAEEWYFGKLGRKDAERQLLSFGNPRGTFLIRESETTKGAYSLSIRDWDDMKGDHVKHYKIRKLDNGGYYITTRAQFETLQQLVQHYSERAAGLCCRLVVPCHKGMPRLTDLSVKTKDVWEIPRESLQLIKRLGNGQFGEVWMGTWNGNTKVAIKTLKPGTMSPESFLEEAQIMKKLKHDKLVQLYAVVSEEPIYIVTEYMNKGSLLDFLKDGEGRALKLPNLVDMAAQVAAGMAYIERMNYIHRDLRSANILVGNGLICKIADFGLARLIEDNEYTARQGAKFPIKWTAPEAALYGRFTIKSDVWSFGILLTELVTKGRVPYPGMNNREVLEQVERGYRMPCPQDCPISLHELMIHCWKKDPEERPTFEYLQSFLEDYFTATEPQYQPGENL
Property Measured: phosphorylation enrichment
// no unit, no text: just the number

{"Residue Sequence": "VIGRMYDYHVL [RPF2_Y109]", "phosphorylation enrichment": 0.504}

Lookup: Entry TKQLTYEEQDL [PIK3C3_Y310] has what phosphorylation enrichment?
Found: 0.529

Lookup: Can you share its phosphorylation enrichment? I mean this sequence: PAIFTYDEFKK [COL8A2_Y648_T645I_YF]
Found: 0.952

Lookup: State the recorded phosphorylation enrichment for this entry: KGEDFYFVTCH [FHL1_Y149_C150Y_YF]
Found: 0.451

Lookup: Dear colleague, I am looking for the recorded phosphorylation enrichment of the following sequence: PMQLPYDSTWE [PDGFRB_Y589]
Found: 0.561

###

biological target: Grb2 SH2 (UniProt P62993); assay: SH2 binding enrichment of the phosphorylated peptide, bacterial display (enrichment ratio); higher = better substrate or ligand; peptides without Tyr show the background
Property Measured: SH2 binding enrichment

These recorded examples may help you get a feel for the data.
{"Residue Sequence": "SCRENYSFSEE [LEMD3_Y258_D260Y_YF]", "Subject Of Test": "Grb2 SH2 (UniProt P62993)", "SH2 binding enrichment": 1.05}
{"Residue Sequence": "LGRTVYADCLA [ABCA4_Y2063_L2060R]", "Subject Of Test": "Grb2 SH2 (UniProt P62993)", "SH2 binding enrichment": 1.15}

(1) GLIPAYHRVIM [NMNAT1_Y64]
(2) AALSAYAPQRP [PTPRN2_Y249_A251P]
Lookup: // compare measured SH2 binding enrichment between 1 and 2 ; output the lower one Please reply using the label of the selected record.
Found: 2
(2: 0.713, 1: 1.07)

###

target: EPHB2 (UniProt P29323); assay: phosphorylation enrichment, bacterial display (enrichment ratio); higher = better substrate or ligand; peptides without Tyr show the background
Sequence (P29323 whole entry, looked up): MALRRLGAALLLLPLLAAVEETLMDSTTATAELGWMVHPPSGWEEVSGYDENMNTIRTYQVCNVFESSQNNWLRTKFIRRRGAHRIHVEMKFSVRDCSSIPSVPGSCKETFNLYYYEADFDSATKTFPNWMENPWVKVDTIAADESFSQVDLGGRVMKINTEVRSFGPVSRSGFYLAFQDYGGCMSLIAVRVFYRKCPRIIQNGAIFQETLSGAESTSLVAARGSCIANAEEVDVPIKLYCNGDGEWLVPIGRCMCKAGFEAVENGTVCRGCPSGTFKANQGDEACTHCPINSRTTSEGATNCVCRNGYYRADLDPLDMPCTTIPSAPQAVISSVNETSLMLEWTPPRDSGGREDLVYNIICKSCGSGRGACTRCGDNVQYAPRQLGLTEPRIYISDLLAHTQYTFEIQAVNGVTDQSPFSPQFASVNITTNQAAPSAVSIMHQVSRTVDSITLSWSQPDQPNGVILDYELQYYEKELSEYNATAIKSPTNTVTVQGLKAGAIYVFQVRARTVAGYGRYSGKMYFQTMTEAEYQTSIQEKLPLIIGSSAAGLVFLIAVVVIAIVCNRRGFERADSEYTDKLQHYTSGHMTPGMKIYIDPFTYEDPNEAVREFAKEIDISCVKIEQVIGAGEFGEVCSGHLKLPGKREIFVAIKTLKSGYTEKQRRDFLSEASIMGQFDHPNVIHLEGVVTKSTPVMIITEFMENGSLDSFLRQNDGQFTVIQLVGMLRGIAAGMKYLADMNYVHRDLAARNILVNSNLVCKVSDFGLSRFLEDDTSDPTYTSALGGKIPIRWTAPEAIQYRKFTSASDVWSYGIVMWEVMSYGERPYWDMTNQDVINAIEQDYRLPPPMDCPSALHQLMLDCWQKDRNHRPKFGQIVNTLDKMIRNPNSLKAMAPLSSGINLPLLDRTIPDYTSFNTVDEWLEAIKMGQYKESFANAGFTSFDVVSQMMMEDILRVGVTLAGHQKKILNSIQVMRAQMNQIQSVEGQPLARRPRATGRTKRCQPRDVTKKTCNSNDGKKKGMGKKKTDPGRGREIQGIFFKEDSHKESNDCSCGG
Parameter: phosphorylation enrichment. Scope: all listed entries.
Response field accepts a number only; no unit should be typed.

{"Residue Sequence": "GVLKEYGVKVL [CPS1_Y529]", "Reported Value": 0.322}
{"Residue Sequence": "AIKSFYAALID [RYR1_Y2426_M2423K]", "Reported Value": 1.23}
{"Residue Sequence": "LDTIQYSKHPP [SQSTM1_Y433]", "Reported Value": 0.998}
{"Residue Sequence": "EVESPYEVHDY [GIGYF2_Y1168]", "Reported Value": 0.84}
{"Residue Sequence": "WRPFGYPHRRR [BCS1L_Y181_R183H]", "Reported Value": 0.461}
{"Residue Sequence": "EARRVYGDIIF [ALDH5A1_Y175_H180Y_YF]", "Reported Value": 0.448}
{"Residue Sequence": "TNITEYCRDLI [RECQL_Y492_K487T]", "Reported Value": 0.617}
{"Residue Sequence": "EFSNQYKATIG [RAB7A_Y37_K32E]", "Reported Value": 0.413}
{"Residue Sequence": "ITVCDYTNPCP [MYD88_Y276_T281P]", "Reported Value": 0.482}
{"Residue Sequence": "TNDMRYPMKSE [TGDS_Y302]", "Reported Value": 0.46}

Lookup: Requested field: phosphorylation enrichment. Item: HHTDECEYDEL [TGM1_Y134_Y134C]
Found: 0.772

Lookup: // query phosphorylation enrichment value for entry YKEQGYHRLPP [RIN1_Y681]
Found: 0.364

Lookup: What measured phosphorylation enrichment goes with QYNPEYVQQAS [LRRC7_Y1058_H1054Y] ?
Found: 0.802

Lookup: Which phosphorylation enrichment value is on record for ILNANYMAKRL [GLDC_Y839] ?
Found: 0.363

Lookup: # lookup: phosphorylation enrichment of MAQDIYRASYY [ALK_Y1278_R1275Q]
Found: 0.53

Lookup: Recorded phosphorylation enrichment for KVALLYKPYFY [POLE_Y100_P99L] , please?
Found: 0.483

Lookup: Given the entry LDLSYYPTSSS [EMD_Y182] , report its measured phosphorylation enrichment.
Found: 1.18

Lookup: Which phosphorylation enrichment reading was recorded for the sequence KKARAYGPGIE [FLNA_Y287] ?
Found: 0.335

Lookup: // query phosphorylation enrichment value for entry NSAFFYKTAEE [CCT6B_Y250_G247A]
Found: 0.472

###

target: SHP2-C SH2; experiment: SH2 binding enrichment of the phosphorylated peptide, bacterial display (enrichment ratio); higher = better substrate or ligand; peptides without Tyr show the background
Property Measured: SH2 binding enrichment

{"Residue Sequence": "VIKSSYQVAKA [CPT1B_Y534_E531K]", "SH2 binding enrichment": 0.503}
{"Residue Sequence": "RCKSHYAAFSV [C1QTNF1_Y145]", "SH2 binding enrichment": 1.73}

(a) TAGFIYEKWEI [TEC_Y360_S359I]
(b) DRLAVCIDRVR [LMNA_Y45_Y45C]
(c) FRAVKYLQMVG [AVPR2_Y117_C112Y_YF]
Lookup: # rank_down: sort by SH2 binding enrichment, max first In your reply, arrange the labels in the requested order.
Found: c, a, b
(c: 3.15, a: 1.24, b: 0.653)

(1) TEQDPYNNIDR [MMUT_Y364_V368D]
(2) SVTWTYSPALN [TP53_Y126_C124W]
Lookup: Which has the higher SH2 binding enrichment, 1 or 2 ? # reply format: chosen label
Found: 1
(1: 0.731, 2: 0.492)

(A) VTPSEYLEIVR [TMEM130_Y412_E407V]
(B) AHDGEYGAEAL [HBA1_Y25_A22D]
Lookup: Which numeric SH2 binding enrichment is bigger, that of A or that of B ? Answer format: the label of the selected item.
Found: A

###

target: Grb2 SH2 (UniProt P62993); assay: SH2 binding enrichment of the phosphorylated peptide, bacterial display (enrichment ratio); higher = better substrate or ligand; peptides without Tyr show the background
Property Measured: SH2 binding enrichment

{"Residue Sequence": "YSPYDYQPCLA [TNS1_Y798]", "SH2 binding enrichment": 0.746}
{"Residue Sequence": "EARRVYGDIIF [ALDH5A1_Y175_H180Y_YF]", "SH2 binding enrichment": 0.818}
{"Residue Sequence": "NSNAAYEQSHF [LRIF1_Y714]", "SH2 binding enrichment": 0.755}
{"Residue Sequence": "NRNVRYLTLDI [AKR1C2_Y305]", "SH2 binding enrichment": 1.03}
{"Residue Sequence": "ANYTEYVATRW [CDKL5_Y171]", "SH2 binding enrichment": 0.915}
{"Residue Sequence": "EQKKNYNAMKK [SCN5A_Y1495_Y1494N]", "SH2 binding enrichment": 0.895}
{"Residue Sequence": "SFPSFYTSHVQ [NEFL_Y443_YF]", "SH2 binding enrichment": 0.889}
{"Residue Sequence": "IVAREYFSKAD [CAMK2B_Y107_E110K_YF]", "SH2 binding enrichment": 0.787}
{"Residue Sequence": "TTEHIYGDNFF [UBA7_Y524]", "SH2 binding enrichment": 0.797}
{"Residue Sequence": "RESVSYLFSHV [PRPS1_Y311_G306R]", "SH2 binding enrichment": 0.907}
{"Residue Sequence": "TNDMRYPMKSE [TGDS_Y302]", "SH2 binding enrichment": 0.861}

###

target: c-Src SH2; test: SH2 binding enrichment of the phosphorylated peptide, bacterial display (enrichment ratio); higher = better substrate or ligand; peptides without Tyr show the background
Property Measured: SH2 binding enrichment

Look over these answered cases.
{"Residue Sequence": "VDASFYGGRGV [ANTXR2_Y381_YF]", "SH2 binding enrichment": 0.5}
{"Residue Sequence": "ERRLIYTSDPK [VPS13D_Y864]", "SH2 binding enrichment": 0.507}
{"Residue Sequence": "YDYKKYGKGLR [ZNF445_Y433]", "SH2 binding enrichment": 0.749}

(A) WTAHSYRMGSA [ARHGEF7_Y785_T790A]
(B) GVTLLYFGRFN [ADGRD1_Y85_YF]
Lookup: Given the listed records, identify the one among A and B with higher SH2 binding enrichment. Return value: the label identifying the chosen record.
Found: B
